target: MAGL (Homo sapiens); assay: 2-AG assay: MAGL inhibitory activity by hydrolysis of 2-arachidonoylglycerol to arachidonic acid, followed by mass spectrometry; assay type: biochemical; settings: 15 min preincubation, 30 min reaction at RT, 8 μM 2-arachidonoylglycerol
Labelling: IC50 reported below 20 nM becomes True; at or above becomes False.

[[record]]
molecule = "O=C1NC2(CO1)CN(C(=O)N1CC3(CCC(Cc4ccc(C(F)(F)F)cn4)C3)C1)C2 (centres unmarked) [Example 46]"
qualitative_label = "True"


Query: Strictly below 20 nM in IC50? O=C1COCC2(CN(C(=O)N3CC4(CC(OCC5(C(F)(F)F)CC5)C4)C3)C2)N1 [Example 140]
Response: False

Query: Strictly below 20 nM in IC50? CS(=O)(=O)c1ccc(CC2CC3(C2)CN(C(=O)N2CC4(CCC(=O)N4)C2)C3)cc1 [Example 8]
Response: True

Query: Strictly below 20 nM in IC50? O=C1NC2(CO1)CN(C(=O)N1CC3(CC(Cc4cccc(S(=O)(=O)C(F)(F)F)c4)C3)C1)C2 [Example 21]
Response: True

Query: Strictly below 20 nM in IC50? N=[S@@](=O)(c1cccc(CC2CC3(C2)CN(C(=O)N2CC4(COCC(=O)N4)C2)C3)c1)C(F)(F)F [Example 291]
Response: True

====

Molecular target: MAGL (Homo sapiens, UniProt Q99685)
Sequence (Q99685 1-303): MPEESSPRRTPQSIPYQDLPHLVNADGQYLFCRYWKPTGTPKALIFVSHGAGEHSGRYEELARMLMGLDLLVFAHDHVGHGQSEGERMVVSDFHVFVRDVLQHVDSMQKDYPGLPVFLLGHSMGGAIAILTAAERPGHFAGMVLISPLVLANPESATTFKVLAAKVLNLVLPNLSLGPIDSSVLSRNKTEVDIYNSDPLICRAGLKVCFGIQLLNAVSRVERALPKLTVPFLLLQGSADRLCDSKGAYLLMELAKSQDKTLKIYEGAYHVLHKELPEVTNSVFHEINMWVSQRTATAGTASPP
Assay: 2-AG assay: MAGL inhibitory activity by hydrolysis of 2-arachidonoylglycerol to arachidonic acid, followed by mass spectrometry
Type: biochemical
Conditions: 15 min preincubation, 30 min reaction at RT, 8 μM 2-arachidonoylglycerol
Labelling: IC50 reported below 90 nM becomes 1 (yes); at or above becomes 0 (no).

Field: example entries. Status: answers known.
[[record]]
molecule = "CS(=O)(=O)c1cc(C(F)(F)F)ccc1CC1CC2(C1)CN(C(=O)N1CC3(COCC(=O)N3)C1)C2 [Example 184]"
qualitative_label = "0 (no)"

[[record]]
molecule = "O=C1CCC2(CN(C(=O)N3CC4(CC(Cc5cnc(C(F)(F)F)cn5)C4)C3)C2)N1 [Example 4]"
qualitative_label = "1 (yes)"

[[record]]
molecule = "CS(=O)(=O)c1cc(CC2CC3(C2)CN(C(=O)N2CC4(CCCC(=O)N4)C2)C3)cc(C(F)(F)F)c1 [Example 268]"
qualitative_label = "0 (no)"

[[record]]
molecule = "O=C1NC2(CO1)CN(C(=O)N1CC3(C1)CN(S(=O)(=O)NCC1(C(F)(F)F)CC1)C3)C2 [Example 197]"
qualitative_label = "1 (yes)"

[[record]]
molecule = "N#Cc1cc(CC2CC3(C2)CN(C(=O)N2CC4(CCC(=O)N4)C2)C3)cc(C(F)(F)F)c1 [Example 217]"
qualitative_label = "1 (yes)"

[[record]]
molecule = "O=C1CCC2(CN(C(=O)N3CC4(CC(Oc5ccc(F)cn5)C4)C3)C2)N1 [Example 309]"
qualitative_label = "0 (no)"


Query: Strictly below 90 nM in IC50? O=C1CCC2(CN(C(=O)N3CC4(CC(Cn5cc(C(F)(F)F)cn5)C4)C3)C2)N1 [Example 54]
Response: 1 (yes)

Query: Strictly below 90 nM in IC50? N#Cc1ccc(CC2CC3(C2)CN(C(=O)N2CC4(CCCC(=O)N4)C2)C3)c(F)c1 [Example 273]
Response: 1 (yes)

====

target: MAGL (Homo sapiens, UniProt Q99685); test: 2-AG assay: MAGL inhibitory activity by hydrolysis of 2-arachidonoylglycerol to arachidonic acid, followed by mass spectrometry; type: biochemical; conditions: 15 min preincubation, 30 min reaction at RT, 8 μM 2-arachidonoylglycerol
Here, each record is paired with measured pIC50 data.
Scale note: pIC50 = -log10(concentration in M).

Use these answered entries as a reference point.
[[record]]
compound = "N=[S@](=O)(c1ccc(CC2CC3(C2)CN(C(=O)N2CC4(COC(=O)N4)C2)C3)cc1)C(F)(F)F [Example 359]"
val = 9.49

[[record]]
compound = "CS(=O)(=O)c1cccc(CN2CCC3(CC2)CN(C(=O)N2CC4(CCC(=O)N4)C2)C3)c1 [Example 163]"
val = 8.56

[[record]]
compound = "N#Cc1ccc(CC2CC3(C2)CN(C(=O)N2CC4(CCC(=O)N4)C2)C3)cc1C(F)(F)F [Example 219]"
val = 9.37

[[record]]
compound = "O=C1CCCC2(CN(C(=O)N3CC4(CC(Cc5cccc(S(=O)(=O)C(F)(F)F)c5)C4)C3)C2)N1 [Example 186]"
val = 7.02


Query: Reported pIC50, compound O=C1NC2(CO1)CN(C(=O)N1CC3(CC(Cn4cc(C(F)(F)F)cn4)C3)C1)C2 [Example 53] : ____
Response: 9.36

====

molecular target: MAGL (Homo sapiens, UniProt Q99685); assay: 2-AG assay: MAGL inhibitory activity by hydrolysis of 2-arachidonoylglycerol to arachidonic acid, followed by mass spectrometry; assay type: biochemical; conditions: 15 min preincubation, 30 min reaction at RT, 8 μM 2-arachidonoylglycerol
pIC50: −log10 of the molar value.
# label = label 1 if pIC50 >= 8 else label 0

Field: example entries. Status: answers known.
[[record]]
compound = "O=C1NCC2(CN(C(=O)N3CC4(CCC(OCC5(C(F)(F)F)CC5)CC4)C3)C2)N1"
qualitative_label = "label 0"

[[record]]
compound = "O=C1NC2(CO1)CN(C(=O)N1CC3(CN(Cc4cc(F)cc(F)c4)C3)C1)C2"
qualitative_label = "label 1"

[[record]]
compound = "O=C1CCC2(CN(C(=O)N3CC4(CCN(Cc5ccc(C(F)(F)F)nc5)C4)C3)C2)N1"
qualitative_label = "label 1"


Query: Hi team, for O=C1NC2(CO1)CN(C(=O)N1CC3(CC(c4cnc(C(F)(F)F)nc4)C3)C1)C2 , is the recorded pIC50 at or above 8?
Response: label 1

====

Here, each record is paired with measured log10 IC50 data.
molecular target: MAGL (Homo sapiens); assay: 2-AG assay: MAGL inhibitory activity by hydrolysis of 2-arachidonoylglycerol to arachidonic acid, followed by mass spectrometry; format: biochemical; conditions: 15 min preincubation, 30 min reaction at RT, 8 μM 2-arachidonoylglycerol
Response schema: value (number) is log10 of IC50 in units of nM.

Use these answered entries as a reference point.
[[record]]
compound = "N=[S@@](=O)(c1ccc(CC2CC3(C2)CN(C(=O)N2CC4(CCCC(=O)N4)C2)C3)cc1)C(F)(F)F (single isomer, unassigned) [Example 287]"
val = 2.64

[[record]]
compound = "O=C1CCC2(CN(C(=O)N3CC4(CC(Cc5ccnc(C(F)(F)F)n5)C4)C3)C2)N1 [Example 314]"
val = 0.94

[[record]]
compound = "O=C1CCC2(CN(C(=O)N3CC4(CCC(Cc5ccc(Cl)cn5)CC4)C3)C2)N1 [Example 120]"
val = 0.47

[[record]]
compound = "Cn1nc(C(F)(F)F)cc1CC1CC2(C1)CN(C(=O)N1CC3(CCC(=O)N3)C1)C2 [Example 246]"
val = 0.79

[[record]]
compound = "O=C1NC2(CO1)CN(C(=O)N1CC3(CC(Cc4cncc(F)c4)C3)C1)C2 [Example 37]"
val = 0.28


Query: Reported log10 IC50, compound O=C1NC2(CO1)CN(C(=O)N1CC3(CCC(NS(=O)(=O)c4cccc(OC(F)(F)F)c4)CC3)C1)C2 [Example 114] : ____
Response: -0.20

Query: Reported log10 IC50, compound CS(=O)(=O)c1ccc(CC2CC3(C2)CN(C(=O)N2CC4(COC(=O)N4)C2)C3)cc1 [Example 13] : ____
Response: -0.03

Query: Reported log10 IC50, compound O=C1CCC2(CN(C(=O)N3CC4(CC(Cc5cnc(C(F)(F)F)nc5)C4)C3)C2)N1 [Example 11] : ____
Response: 1.49

Query: Reported log10 IC50, compound Cn1ncc(CC2CC3(C2)CN(C(=O)N2CC4(COC(=O)N4)C2)C3)c1C(F)(F)F [Example 352] : ____
Response: -0.82

Query: Reported log10 IC50, compound O=C1NC2(CO1)CN(C(=O)N1CC3(CCC(Nc4ccc(C(F)(F)F)cn4)CC3)C1)C2 [Example 95] : ____
Response: -0.43
